Tested on: 653999-131-R-J2-PDC complex spheroids, growth % test/control
Test: Anticancer human tumor 653999-131-R-J2-PDC patient-derived lung adenocarcinoma cell line growth inhibition [AhR]
Conditions: second compound 0.316 µM; first compound 0.316 µM; stronger effect = lower value
Measured metric: viability, T/C (%)
Express the result in % but write the number alone.

Ask | Data request, read-out viability, T/C, for Nc1ccccc1NC(=O)c1ccc(CNC(=O)OCc2cccnc2)cc1 + Cc1cncc(-c2nc(NCCc3c[nH]c4ccccc34)c3ncn(C(C)C)c3n2)c1
Reply | 84.3

Ask | Again, but for COc1cc(C2c3cc4c(cc3C(OC3OC5COC(C)OC5C(O)C3O)C3COC(=O)C23)OCO4)cc(OC)c1O (stereo not given) + Cc1cncc(-c2nc(NCCc3c[nH]c4ccccc34)c3ncn(C(C)C)c3n2)c1
Reply | 58.1

Ask | Record: O=C(C=Cc1cccc(S(=O)(=O)Nc2ccccc2)c1)NO + Cc1cncc(-c2nc(NCCc3c[nH]c4ccccc34)c3ncn(C(C)C)c3n2)c1
Reply | 89

Ask | And then CC1COCCN1c1cc(-c2ccnn2C)c2ccnc(-c3ccn[nH]3)c2n1 (stereo not given) + CC(CO)NC(=O)c1cc(-c2ccc(Cl)cc2)nn(-c2cnn(C)c2)c1=O , what is it?
Reply | 36.3

Ask | Also check COc1ccc([C@@H](O)c2cc(-c3ncnc4cc(N5CCOCC5)ccc34)c(F)cc2Cl)nn1 + Cc1cncc(-c2nc(NCCc3c[nH]c4ccccc34)c3ncn(C(C)C)c3n2)c1
Reply | 102

* * *

System: 653999-131-R-J2-PDC complex spheroids, growth % test/control
Assay: Anticancer human tumor 653999-131-R-J2-PDC cell line growth inhibition [AhR];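 note: spheroids exposed to agents for seven days; 100% = DMSO vehicle control viability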
Conditions: second compound 10 µM; first compound 1 µM; stronger effect = lower value
Excerpt: Multicellular complex tumor spheroid response to aryl hydrocarbon receptor antagonists in combination with a variety of drugs and investigational agents in selected tumor cell lines […] Compounds. […] If the clinical Cmax for an agent had not been determined, the highest concentration tested was 10 microM (Table 1). […]
Ranges used to classify viability, T/C: range A (below 50%), range B (50% to below 70%), range C (70% or more)

Ask | Returns: class label. Input: COc1cccc2c1C(=O)c1c(O)c3c(c(O)c1C2=O)CC(O)(C(=O)CO)CC3OC1CC(N)C(O)C(C)O1 (centres undefined) + Cc1cncc(-c2nc(NCCc3c[nH]c4ccccc34)c3ncn(C(C)C)c3n2)c1
Reply | range A

Ask | Repeat with COc1cccc2c1C(=O)c1c(O)c3c(c(O)c1C2=O)CC(O)(C(=O)CO)CC3OC1CC(N)C(O)C(C)O1 (centres undefined) + CC(CO)NC(=O)c1cc(-c2ccc(Cl)cc2)nn(-c2cnn(C)c2)c1=O
Reply | range A

Ask | Repeat for the following compound: O=C(c1cc(Cc2n[nH]c(=O)c3ccccc23)ccc1F)N1CCN(C(=O)C2CC2)CC1 + Cc1cncc(-c2nc(NCCc3c[nH]c4ccccc34)c3ncn(C(C)C)c3n2)c1
Reply | range B

Ask | For Nc1ncn(C2CC(O)C(CO)O2)c(=O)n1 (centres undefined) + Cc1cncc(-c2nc(NCCc3c[nH]c4ccccc34)c3ncn(C(C)C)c3n2)c1 then?
Reply | range A

Ask | Then what about the compound O=C(c1cc(Cc2n[nH]c(=O)c3ccccc23)ccc1F)N1CCN(C(=O)C2CC2)CC1 + CC(CO)NC(=O)c1cc(-c2ccc(Cl)cc2)nn(-c2cnn(C)c2)c1=O ?
Reply | range C

Ask | And the next one, NS(=O)(=O)OCC1CC(n2ccc3c(NC4CCc5ccccc54)ncnc32)CC1O (centres undefined) + Cc1cncc(-c2nc(NCCc3c[nH]c4ccccc34)c3ncn(C(C)C)c3n2)c1 ?
Reply | range A

Ask | What would you report for Nc1ccccc1NC(=O)c1ccc(CNC(=O)OCc2cccnc2)cc1 + Cc1ccccc1N=Nc1ccc(NC(=O)c2ccnn2C)c(C)c1 ?
Reply | range B

Ask | Same question for CC1COCCN1c1cc(-c2ccnn2C)c2ccnc(-c3ccn[nH]3)c2n1 (centres undefined) + CC(CO)NC(=O)c1cc(-c2ccc(Cl)cc2)nn(-c2cnn(C)c2)c1=O please.
Reply | range A

Ask | Same read-out for COc1ccc([C@@H](O)c2cc(-c3ncnc4cc(N5CCOCC5)ccc34)c(F)cc2Cl)nn1 + Cc1cncc(-c2nc(NCCc3c[nH]c4ccccc34)c3ncn(C(C)C)c3n2)c1 ?
Reply | range B

Ask | Another compound to look at: CC1COCCN1c1cc(C2(S(C)(=N)=O)CC2)nc(-c2ccnc3[nH]ccc23)n1 (centres undefined) + Cc1cncc(-c2nc(NCCc3c[nH]c4ccccc34)c3ncn(C(C)C)c3n2)c1
Reply | range B

Ask | // same read-out, input: CC(C)c1c(-c2ccccc2)nc2c(C#N)c[nH]n2c1=O + Cc1cncc(-c2nc(NCCc3c[nH]c4ccccc34)c3ncn(C(C)C)c3n2)c1
Reply | range B

Ask | Again, but for O=C(C=Cc1cccc(S(=O)(=O)Nc2ccccc2)c1)NO + CC(CO)NC(=O)c1cc(-c2ccc(Cl)cc2)nn(-c2cnn(C)c2)c1=O
Reply | range C

Ask | Also, Nc1ncn(C2CC(O)C(CO)O2)c(=O)n1 (centres undefined) + CC(CO)NC(=O)c1cc(-c2ccc(Cl)cc2)nn(-c2cnn(C)c2)c1=O please.
Reply | range C

Ask | Input COc1ccc([C@@H](O)c2cc(-c3ncnc4cc(N5CCOCC5)ccc34)c(F)cc2Cl)nn1 + CC(CO)NC(=O)c1cc(-c2ccc(Cl)cc2)nn(-c2cnn(C)c2)c1=O
Reply | range C

Ask | What do you have for CC(C)c1c(-c2ccccc2)nc2c(C#N)c[nH]n2c1=O + Cc1ccccc1N=Nc1ccc(NC(=O)c2ccnn2C)c(C)c1 ?
Reply | range C

Ask | Queued: NS(=O)(=O)OCC1CC(n2ccc3c(NC4CCc5ccccc54)ncnc32)CC1O (centres undefined) + CC(CO)NC(=O)c1cc(-c2ccc(Cl)cc2)nn(-c2cnn(C)c2)c1=O
Reply | range B

Ask | Request: CC(C)c1c(-c2ccccc2)nc2c(C#N)c[nH]n2c1=O + CC(CO)NC(=O)c1cc(-c2ccc(Cl)cc2)nn(-c2cnn(C)c2)c1=O
Reply | range C

Ask | Please answer likewise for NS(=O)(=O)OCC1CC(n2ccc3c(NC4CCc5ccccc54)ncnc32)CC1O (centres undefined) + Cc1ccccc1N=Nc1ccc(NC(=O)c2ccnn2C)c(C)c1
Reply | range B
